# Test system: SR leukemia
# assay: NCI tumour cell line growth inhibition, 48 h
Where a SMILES comes first, the peptide text is derived from it. [ ]: non-standard residue; d: D form. The star is where a group is joined. Bn2Val = CC(C)[C@@H](C(=O)*)N(Cc1ccccc1)Cc1ccccc1; NH(4-Cl-benzyl) = Clc1ccc(CN*)cc1; NMeV = CN[C@H](C(=O)O)C(C)C; dNMeA = CN[C@H](C)C(=O)O
reportedEndpoint: TGI

`COc1ccc(-c2oc3cc(O)cc(O)c3c(=O)c2OC)cc1` has a reported TGI of > 100 µM

`O=C1c2c(O)cccc2-c2nn(CCNCCO)c3ccc(NCCNCCO)c1c23` has a reported TGI of 3 µM

`c1cncc(CNCc2cccnc2)c1` has a reported TGI of > 100 µM

`O=c1c(-c2ccccc2)c(SCCO)n(-c2ccccc2)c(=S)n1-c1ccccc1` has a reported TGI of > 100 µM

`O=C1OC[C@H]2[C@@H]1[C@H]1O[C@@H]2C2=C(CCC2)C1=O` has a reported TGI of > 100 µM

`Cn1cc(-c2ccc3nnc(Sc4ccc5ncccc5c4)n3n2)cn1` has a reported TGI of > 100 µM

`OCc1ccc(-c2cscc2-c2ccc(CO)o2)o1` has a reported TGI of > 100 µM

`CC(C)OP(=O)(OC(C)C)/C(N)=N/Nc1ccc([N+](=O)[O-])cc1` has a reported TGI of > 100 µM

O=C(CCN1CCN2c3ccccc3CCC2C1)c1ccc(F)cc1 (centres undefined) has a reported TGI of > 100 µM

`O=C(NCCc1ccccn1)OCc1nc2nc(Cl)nc(N3CCOCC3)c2[nH]1` has a reported TGI of > 100 µM

`CC(C)(C)OC(=O)NCC(CNC(=O)OC(C)(C)C)c1nc(C(N)=O)cs1` has a reported TGI of > 100 µM

CC(C)C(C/C=C1\CC(CO)(COC(=O)C2CCCCC2)OC1=O)C(C)C (centres undefined) has a reported TGI of > 100 µM

`O=c1[nH]n(Cc2ccccc2)c2ccc([N+](=O)[O-])cc12` has a reported TGI of > 100 µM

C=C1CCC2(C#N)[C@H]3[C@H](CC[C@@H]2C)[C@@H](C)C[C@@H](CC(C)(C)NC(=O)CN2CCC2=O)[C@H]13 (some centres undefined) has a reported TGI of 23.6 µM

`Cc1nc(N)c(N2CCN(CN)CC2)c(=O)[nH]1` has a reported TGI of > 100 µM

`COc1ccc(Nc2ccc3ccccc3c2-c2c(O)ccc3ccccc23)cc1` has a reported TGI of 30.6 µM

`COc1cc(NC(=O)CCSc2nc3ccc(C)cc3c(=O)n2Cc2ccccc2)cc(OC)c1OC` has a reported TGI of > 100 µM

N#Cc1cc2c(n(C3OC(CO)C(O)C(O)C3O)c1=S)CCCCCC2 (centres undefined) has a reported TGI of > 100 µM

`COC(=O)COc1ccc(/C=C2/N=C(c3ccccc3)N(c3c(C)n(C)n(-c4ccccc4)c3=O)C2=O)cc1` has a reported TGI of 69.3 µM

`CN(C)CCCNc1ccc2nnn3c4ccc(O)cc4c(=O)c1c23` has a reported TGI of 3.61 µM

`CC1=C2C(=CO[C@H](C)[C@H]2C)C(=O)C(C(=O)O)=C1O` has a reported TGI of 66.7 µM

CC(C)[C@H](NC(=O)[C@H](C(C)C)N(Cc1ccccc1)Cc1ccccc1)C(=O)N(C)[C@H](C(=O)N1CCC[C@H]1C(=O)N(C)[C@H](C)C(=O)NCc1ccc(Cl)cc1)C(C)C (Bn2Val-V[NMeV]P[dNMeA]-{NH(4-Cl-benzyl)}) has a reported TGI of > 100 µM

COc1cc2c(cc1O)CC1c3c(cc(O)c(OC)c3-2)CCN1C (centres undefined) has a reported TGI of > 100 µM

`O=C1/C(=C/c2ccccc2)CN(C(=O)CCN2CCCC2)C/C1=C\c1ccccc1` has a reported TGI of 1.07 µM

`O=[N+]([O-])c1cccc(N=Nc2c(O)c(S(=O)(=O)O)cc3cc(S(=O)(=O)O)ccc23)c1` has a reported TGI of > 100 µM

`Cc1nc2ccc(NC(=O)CCNC(=O)CCCc3ccc(CC(C(=O)O)C(=O)O)cc3)cc2s1` has a reported TGI of > 100 µM

`CC(=O)O[C@]1(C)OC(=O)[C@@H](CC(C)C)N1[N+](=O)[O-]` has a reported TGI of > 100 µM

NNC(=O)C1(NC(=O)c2ccccc2)C(c2ccccc2)C(c2ccccc2)=NN1c1ccccc1 (centres undefined) has a reported TGI of 65.6 µM

`CCOC(=O)N1CCc2cc(OC)c(OC)cc2/C1=C\c1ccc(OC)c(OC)c1` has a reported TGI of > 100 µM

CC(=O)NC1C(OCc2ccccc2)OC(CO)C(O)C1OC(C)C(=O)NC(C(=O)NC(CCC(=O)NCCCCNc1c2ccccc2nc2cccc([N+](=O)[O-])c12)C(N)=O)C(C)C (centres undefined) has a reported TGI of 2.61 µM

Cc1cc(O)c(C2=NN(c3ccc(S(N)(=O)=O)cc3)C(c3ccc(Cl)cc3)C2)c(C)c1Cl (centres undefined) has a reported TGI of 5.02 µM

COC(=O)c1c2c(cc3c1CC1(Cc4cc5c(c(C(C)=O)c4C1)CCC5)C3)CCC2 (centres undefined) has a reported TGI of > 100 µM

`CN(C)Cc1cc(C(=O)/C=C/c2ccccc2)cc(CN(C)C)c1O` has a reported TGI of 59.1 µM

`Cc1c(-c2ccnc(N)n2)c2c(n1Cc1ccccc1)C(=O)c1ccccc1C2=O` has a reported TGI of 4.52 µM

`Cc1ccc(S(=O)(=O)Nc2nnc(S(N)(=O)=O)s2)cc1` has a reported TGI of > 100 µM

`COc1ccc(-c2nc(-c3nc4ccc(F)cc4[nH]3)c3ccccn23)cc1` has a reported TGI of > 100 µM

`O=C(Oc1ccc(CO[N+](=O)[O-])cc1)c1ccccc1` has a reported TGI of 0.542 µM

`CC(C)=CCNc1nc(Cl)nc2nc[nH]c12` has a reported TGI of > 100 µM

`CCOC(=O)Nn1c(CC#N)nnc1Cc1ccccc1` has a reported TGI of > 100 µM

---

I'd be grateful if you could share measured TGI for these entries.
# Test system: XF 498 CNS
# assay: NCI tumour cell line growth inhibition, 48 h
// note: answer is a bare numeric in µM

CC(C)(C)C(=CS(=O)/N=C/c1ccccc1)C(C)(C)C (stereo not given) has a reported TGI of 89.7

`CC(=O)OCC(=O)[C@@]12OC(C)(C)O[C@@H]1C[C@H]1[C@@H]3CC(C=O)=C4C=C(OCCCl)CC[C@]4(C)[C@@]3(F)[C@@H](O)C[C@@]12C` has a reported TGI of 35.8

`CC1=C2C(=CO[C@H](C)[C@H]2C)C(=O)C(C(=O)O)=C1O` has a reported TGI of 13.6

COc1cccc(N[C@@H]2c3cc4c(cc3C(c3cc(OC)c(O)c(OC)c3)[C@H]3C(=O)OCC32)OCO4)c1 (stereo not given in full) has a reported TGI of 23.9

---

I'd be grateful if you could share measured TGI for these entries.
# System: MDA-MB-231 breast
# assay: NCI tumour cell line growth inhibition, 48 h
// note: answer is a bare numeric in µM

`CC(C)=CCNc1nc(Cl)nc2nc[nH]c12` has a reported TGI of 68.2

`C=C=C(CC(CC(=C)Br)(C(=O)OC)C(=O)OC)S(=O)(=O)c1ccccc1` has a reported TGI of 4.93

`CCOc1c(N=Nc2ccccc2Cl)c(-c2ccccc2)nn1C(=S)S` has a reported TGI of 56.5

COc1cc2cc(C(=O)N3CC(COS(C)(=O)=O)c4ccc(O)cc43)[nH]c2c(OC)c1OC (stereo unspecified) has a reported TGI of 0.000328

`c1ccc(CN2CCC(Nc3ccccc3)(c3nnnn3Cc3ccccc3)CC2)cc1` has a reported TGI of 88.9

---

# System: OVCAR-4 ovarian
# assay: NCI tumour cell line growth inhibition, 48 h
reportedEndpoint: TGI

O=P1(S)OC[C@H]2O[C@@H]3[C@H](F)[C@@H]2OP(O)(=S)OC[C@H]2O[C@H]([C@H](F)[C@@H]2O1)n1cnc2c(ncnc21)NC/C=C/CNc1ncnc2c1ncn23 (stereo not given in full) has a reported TGI of > 100 µM

COc1cc(C)c(C2NC(=O)c3ccccc3N2)cc1C (stereo not given) has a reported TGI of > 82.9 µM

Cc1ccc(S(=O)CC(CF)OCn2cc(C)c(=O)[nH]c2=O)cc1 (stereo not given) has a reported TGI of > 100 µM

`CCN(c1cc(-c2ccc(CN3CCOCC3)cc2)cc(C(=O)NCc2c(C)cc(C)[nH]c2=O)c1C)C1CCOCC1` has a reported TGI of 97.2 µM

`CN(C)CCn1c(CO)nc2c1c(=O)n(C)c(=O)n2C` has a reported TGI of > 100 µM

`CC1(C)CC2(CC(C)(C)N1O)NC(=O)OC2=O` has a reported TGI of > 100 µM

NNC(=O)C(=O)N/N=C1\CCC(=O)CC1C(=O)CCC(=O)Nc1ccc(Cl)cc1 (stereo not given) has a reported TGI of > 100 µM

`Cc1ccc(N=Nc2c(O)ccc3ccccc23)cc1` has a reported TGI of > 100 µM

`O=C1C=CC(=O)c2c(O)c(NCCOCCO)c(Cl)c(O)c21` has a reported TGI of 5.91 µM

`CC(C)(C)[Si](C)(C)OCc1cccc(OCCOc2cccc(CO[Si](C)(C)C(C)(C)C)c2[N+](=O)[O-])c1[N+](=O)[O-]` has a reported TGI of > 100 µM

`CC(=O)Nc1ccc(OC/C(N)=N/NC(=O)c2ccncc2)cc1` has a reported TGI of > 100 µM

`COc1cccc(C=O)c1[O-].[O]=[U](=[O])([OH2+])[OH2+]` has a reported TGI of > 100 µM

`O=C(O)c1ccccc1N=Cc1ccc(N(CCCl)CCCl)cc1` has a reported TGI of > 100 µM

CC(C)C(C/C=C1\CC(CO)(COC(=O)C2CCCCC2)OC1=O)C(C)C (stereo not given) has a reported TGI of 36 µM

`Cn1c(=O)oc2nc(-c3ccccc3)cc(C(F)(F)F)c21` has a reported TGI of > 100 µM

`CC(C)(C)OC(=O)NCC(CNC(=O)OC(C)(C)C)c1nc(C(N)=O)cs1` has a reported TGI of > 100 µM

`O=[N+]([O-])c1cccc(N=Nc2c(O)c(S(=O)(=O)O)cc3cc(S(=O)(=O)O)ccc23)c1` has a reported TGI of > 100 µM

`O=C1c2c(O)cccc2-c2nn(CCNCCO)c3ccc(NCCNCCO)c1c23` has a reported TGI of 2.97 µM

`COC(=O)COc1ccc(/C=C2/N=C(c3ccccc3)N(c3c(C)n(C)n(-c4ccccc4)c3=O)C2=O)cc1` has a reported TGI of 70.9 µM

`O=c1[nH]c2nc(NC3CCOCC3)ncc2cc1Oc1ccc(F)cc1F` has a reported TGI of > 25 µM
